B1: HDV Ribozyme (parent)
chain: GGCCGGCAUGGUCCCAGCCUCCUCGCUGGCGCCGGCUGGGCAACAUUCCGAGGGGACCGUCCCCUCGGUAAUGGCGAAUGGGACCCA

- Variants of: B1
- Experiment Notes: self-cleavage, relative activity (ratio to wild type); higher = more cleavage; co-transcriptional
Binning of self-cleavage into classes: lower range = under 0.1, middle range = from 0.1 up to 0.7, upper range = 0.7 and over

// below: answered variants
Variant Name	Class Assignment
C33A G76A	middle range
U20G C57G	middle range
A77G A87U	upper range
G50U U69A	upper range
C19A C86G	lower range
C41G C58G	upper range
G31C C86A	middle range
U9C U60G	upper range
G38U A78G	middle range
G28C G29U	lower range

Note: place this variant into its band. Item: C32U C41U
middle range

Note: place this variant into its band. Item: C3G C26G
upper range

Note: place this variant into its band. Item: G6U G76U
upper range

Note: place this variant into its band. Item: G67U C86G
upper range

Note: place this variant into its band. Item: G39C C57A
middle range

Note: place this variant into its band. Item: C15G A87G
middle range

Note: place this variant into its band. Item: G39A U79G
middle range

Note: place this variant into its band. Item: C22A G31A
middle range

Note: place this variant into its band. Item: G17C C24U
middle range

Note: place this variant into its band. Item: C32G A77U
middle range

Note: place this variant into its band. Item: C61G C85G
upper range

Note: place this variant into its band. Item: G2U C61G
lower range

Note: place this variant into its band. Item: C22G G74U
lower range

Note: place this variant into its band. Item: U12C G38C
lower range

Note: place this variant into its band. Item: U27A U69G
upper range

Note: place this variant into its band. Item: G1A G52A
middle range

Note: place this variant into its band. Item: A16C A56C
middle range

Note: place this variant into its band. Item: G76C A77C
middle range
